# Type: in vivo, Sprague-Dawley rats
# reported.conditions: male, Sprague-Dawley, rat, plasma, po, 25 mg/kg
recorded.endpoint: AUC(0-t) (ng·h/mL)

molecule	recorded.number
CC(=O)O[C@H]1C(=O)[C@@]2(C)[C@H]([C@H](OC(=O)c3ccccc3)[C@]3(O)C[C@H](OC(=O)[C@H](O)[C@@H](NC(=O)c4ccccc4)c4ccccc4)C(C)=C1C3(C)C)[C@]1(OC(C)=O)CO[C@@H]1C[C@@H]2O	409

====

# Type: in vivo, Sprague-Dawley rats
# reported.conditions: male, Sprague-Dawley, rat, plasma, iv, 2 mg/kg

compound	u	k el
CC(=O)O[C@H]1C(=O)[C@@]2(C)[C@H]([C@H](OC(=O)c3ccccc3)[C@]3(O)C[C@H](OC(=O)[C@H](O)[C@@H](NC(=O)c4ccccc4)c4ccccc4)C(C)=C1C3(C)C)[C@]1(OC(C)=O)CO[C@@H]1C[C@@H]2O [PTX, Paclitaxel]	s⁻¹	4.47e-05

====

# assay.notes: In vitro daunomycin cytotoxicity assay
# Assay type: cell-based
# reported.conditions: human

molecule	IC50 at 2 h (µM)
COc1cccc2c1C(=O)c1c(O)c3c(c(O)c1C2=O)C[C@@](O)(C(C)=O)C[C@@H]3O[C@H]1C[C@H](N)[C@H](O)[C@H](C)O1	10.4

====

# Type: in vivo, Sprague-Dawley rats
# reported.conditions: male, Sprague-Dawley, rat, plasma, po, 25 mg/kg
recorded.endpoint: Cmax (ng/mL)

molecule	recorded.number
CC(=O)O[C@H]1C(=O)[C@@]2(C)[C@H]([C@H](OC(=O)c3ccccc3)[C@]3(O)C[C@H](OC(=O)[C@H](O)[C@@H](NC(=O)c4ccccc4)c4ccccc4)C(C)=C1C3(C)C)[C@]1(OC(C)=O)CO[C@@H]1C[C@@H]2O	60.6

====

# Type: in vivo, Sprague-Dawley rats
# reported.conditions: male, Sprague-Dawley, rat, plasma, iv, 2 mg/kg
recorded.endpoint: AUC(0-t) (ng·h/mL)

compound	u	recorded.number
CC(=O)O[C@H]1C(=O)[C@@]2(C)[C@H]([C@H](OC(=O)c3ccccc3)[C@]3(O)C[C@H](OC(=O)[C@H](O)[C@@H](NC(=O)c4ccccc4)c4ccccc4)C(C)=C1C3(C)C)[C@]1(OC(C)=O)CO[C@@H]1C[C@@H]2O [PTX, Paclitaxel]	ng·h/mL	1660

====

# Format: in vivo, Sprague-Dawley rats
# reported.conditions: male, Sprague-Dawley, rat, plasma, po, 25 mg/kg
recorded.endpoint: AUC(0-inf) (ng·h/mL)

molecule	u	recorded.number
CC(=O)O[C@H]1C(=O)[C@@]2(C)[C@H]([C@H](OC(=O)c3ccccc3)[C@]3(O)C[C@H](OC(=O)[C@H](O)[C@@H](NC(=O)c4ccccc4)c4ccccc4)C(C)=C1C3(C)C)[C@]1(OC(C)=O)CO[C@@H]1C[C@@H]2O	ng·h/mL	564

====

# Assay type: in vivo, Sprague-Dawley rats
# reported.conditions: male, Sprague-Dawley, rat, plasma, iv, 2 mg/kg
recorded.endpoint: Vd (L)

molecule	u	recorded.number
CC(=O)O[C@H]1C(=O)[C@@]2(C)[C@H]([C@H](OC(=O)c3ccccc3)[C@]3(O)C[C@H](OC(=O)[C@H](O)[C@@H](NC(=O)c4ccccc4)c4ccccc4)C(C)=C1C3(C)C)[C@]1(OC(C)=O)CO[C@@H]1C[C@@H]2O	L	2.06
